System: HIPK2
Conditions: concentration: 1 μM, replicates: in singlicate; n = 1;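 further: KINOMEscan kinase panel screen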
Answer each item with its documented %Inh.
Could you give me the number in %? Just the number is fine.

Value wanted: %Inh (HIPK2) of entry Clc1cc(Nc2ncnc3cc[nH]c23)ccc1OCc1ccccn1 19

Could you do the same for C[C@H]1CC[C@@H](C(=O)Nc2ccccc2)CN1c1cc(-c2ccc3c(N)n[nH]c3c2)nc(N)n1 [GSK2283293] , please? 0

Could you do the same for COc1ccc(Nc2nccc(N3CCC(NC(=O)Nc4ccc5c(c4)OCO5)C3)n2)cc1 (centres unmarked) [GSK1379745] , please? 0

Could you do the same for Clc1ccc(-c2cc(-c3c[nH]nc3-c3ccccn3)ccn2)cc1 [GW681251] , please? 0

Could you do the same for COC(=O)c1cccc(NC(=O)NCCNc2ccnc(Nc3ccc(F)cc3)n2)c1 [GSK1379883] , please? 0

Could you do the same for Cc1cccc(-c2nc(Nc3ccc4[nH]nnc4c3)c3ccccc3n2)n1 [GW867587] , please? 0

Could you do the same for Nc1nc(-c2ccc3c(N)n[nH]c3c2)cc(N2CCC[C@@H](C(=O)Nc3ccccc3)C2)n1.O=C(O)C(F)(F)F.O=C(O)C(F)(F)F [GSK2288359] , please? 0

Could you do the same for O=C(CCO)NCCn1ccc2ncnc(Nc3ccc(Oc4cccc(C(F)(F)F)c4)c(Cl)c3)c21 , please? 0

Could you do the same for COc1ccc(NC(=O)c2ccc(-c3cc(-c4nnc(C)o4)ccc3C)cc2)cc1 [GW595885] , please? 0

Could you do the same for COC(=O)c1c(-c2ccccc2)c2cc(Cl)ccc2c(=O)n1Cc1ccc(S(C)(=O)=O)cc1 , please? 24

Could you do the same for c1ccc(-c2ccc3c(-c4ccnc(Nc5ccc6c(c5)OCCO6)n4)cnn3n2)cc1 [GW818941] , please? 0

Could you do the same for CC(C)N1CCC(n2cnc(-c3ccc(F)cc3)c2-c2ccnc(N)n2)CC1 [SB-223132] , please? 0

Could you do the same for O=C(Nc1ccccc1F)NC1CCN(c2ccnc(Nc3ccc(F)cc3)n2)C1 (centres unmarked) [GSK1379722] , please? 0

Could you do the same for Cc1cc(N2CCC(NS(=O)(=O)c3ccc(F)cc3)CC2)nc(Nc2cccc(C#N)c2)n1.O=C(O)C(F)(F)F [GSK1653537] , please? 47

Could you do the same for COc1ccc(NC(=O)Nc2ccc(C)c(-c3ccc(C(=O)Nc4ccncc4)cc3)c2)cc1 [GSK1398475] , please? 0

Could you do the same for Fc1ccc(-c2ncn(CCCNCc3ccccc3)c2-c2ccncc2)cc1 , please? 23

Could you do the same for NC(=O)c1sc(-n2cnc3ccccc32)cc1OCc1ccccc1F [GSK1024306] , please? 44

###

Tested on: TIE1
Conditions: concentration: 1 μM, replicates: in singlicate; n = 1
test-readout: %Inh
Write the figure, then the unit, nothing else.

Look at this molecule and give its reported %Inh. c1ccc(-c2ccc3c(-c4ccnc(Nc5ccc6c(c5)OCCO6)n4)cnn3n2)cc1 22%

Could you do the same for Nc1nccc2scc(-c3ccc4c(c3)CCN4C(=O)Cc3cc(F)ccc3F)c12 , please? 54%

Could you do the same for Clc1cccc(-c2nc(Nc3ccncc3)c3ccccc3n2)c1 , please? 0%

Could you do the same for COC(=O)c1cccc(NC(=O)NCCNc2ccnc(Nc3ccc(F)cc3)n2)c1 , please? 0%

Could you do the same for FC(F)(F)c1ccc(-c2nn3ncccc3c2-c2ccnc(Nc3cccc(C(F)(F)F)c3)n2)cc1 , please? 0%

Could you do the same for CS(=O)(=O)CCNCc1nc(-c2ccc3ncnc(Nc4ccc(OCc5cccc(F)c5)c(Cl)c4)c3c2)cs1.Cl , please? 0%

Could you do the same for Cl.Cn1ccc(-c2cccc(Nc3ccnc4cc(-c5nccs5)ccc34)c2)n1 , please? 0%

Could you do the same for Cl.Cl.c1ccc(-c2cc3ccncc3cc2OC2CCNCC2)cc1 , please? 1%

Could you do the same for Cc1ccc(O)cc1Nc1cc(C(F)(F)F)nc2ccc(-c3ccncc3)cc12 , please? 0%

Could you do the same for CN1c2ccc(-c3ccc(C(=O)NCCO)cc3)cc2-c2[nH]ncc2S1(=O)=O , please? 0%

Could you do the same for CS(=O)(=O)CCNCc1ccc(-c2ccc3ncnc(Nc4ccc(OCc5ccccc5)c(Cl)c4)c3c2)o1.Cl , please? 34%

Could you do the same for Nc1nc(-c2ccc3c(N)n[nH]c3c2)cc(N2CCCCC2)n1 , please? 6%

Could you do the same for CNc1nccc(-c2c(-c3ccc(F)cc3)ncn2C2CCN(C)CC2)n1 , please? 0%

Could you do the same for CSc1nn2c(=O)cc(N3CCOCC3)nc2n1Cc1cccc(Cl)c1Cl , please? 14%

Could you do the same for COc1cc2c(Nc3cccc(NC(=O)c4ccccc4)c3)ncnc2cc1OCCCN1CCOCC1 , please? 24%

Could you do the same for Fc1cccc(COc2ccc(Nc3ncnc4nn5ccccc5c34)cc2Cl)c1 , please? 0%

Could you do the same for O=C(Nc1ccccc1F)NC1CCN(c2ccnc(Nc3ccc(F)cc3)n2)C1 (stereo not drawn) , please? 0%

Could you do the same for Cn1cc(-c2ccc3c(c2)CCN3C(=O)Cc2cccc(C(F)(F)F)c2)c2c(N)ncnc21 , please? 46%
